# assayedTarget: human C3bBb (Bb from FB D279G/K350N/M458I) (human)
# Sequence (P01024 23-1663, chain 1 of 2): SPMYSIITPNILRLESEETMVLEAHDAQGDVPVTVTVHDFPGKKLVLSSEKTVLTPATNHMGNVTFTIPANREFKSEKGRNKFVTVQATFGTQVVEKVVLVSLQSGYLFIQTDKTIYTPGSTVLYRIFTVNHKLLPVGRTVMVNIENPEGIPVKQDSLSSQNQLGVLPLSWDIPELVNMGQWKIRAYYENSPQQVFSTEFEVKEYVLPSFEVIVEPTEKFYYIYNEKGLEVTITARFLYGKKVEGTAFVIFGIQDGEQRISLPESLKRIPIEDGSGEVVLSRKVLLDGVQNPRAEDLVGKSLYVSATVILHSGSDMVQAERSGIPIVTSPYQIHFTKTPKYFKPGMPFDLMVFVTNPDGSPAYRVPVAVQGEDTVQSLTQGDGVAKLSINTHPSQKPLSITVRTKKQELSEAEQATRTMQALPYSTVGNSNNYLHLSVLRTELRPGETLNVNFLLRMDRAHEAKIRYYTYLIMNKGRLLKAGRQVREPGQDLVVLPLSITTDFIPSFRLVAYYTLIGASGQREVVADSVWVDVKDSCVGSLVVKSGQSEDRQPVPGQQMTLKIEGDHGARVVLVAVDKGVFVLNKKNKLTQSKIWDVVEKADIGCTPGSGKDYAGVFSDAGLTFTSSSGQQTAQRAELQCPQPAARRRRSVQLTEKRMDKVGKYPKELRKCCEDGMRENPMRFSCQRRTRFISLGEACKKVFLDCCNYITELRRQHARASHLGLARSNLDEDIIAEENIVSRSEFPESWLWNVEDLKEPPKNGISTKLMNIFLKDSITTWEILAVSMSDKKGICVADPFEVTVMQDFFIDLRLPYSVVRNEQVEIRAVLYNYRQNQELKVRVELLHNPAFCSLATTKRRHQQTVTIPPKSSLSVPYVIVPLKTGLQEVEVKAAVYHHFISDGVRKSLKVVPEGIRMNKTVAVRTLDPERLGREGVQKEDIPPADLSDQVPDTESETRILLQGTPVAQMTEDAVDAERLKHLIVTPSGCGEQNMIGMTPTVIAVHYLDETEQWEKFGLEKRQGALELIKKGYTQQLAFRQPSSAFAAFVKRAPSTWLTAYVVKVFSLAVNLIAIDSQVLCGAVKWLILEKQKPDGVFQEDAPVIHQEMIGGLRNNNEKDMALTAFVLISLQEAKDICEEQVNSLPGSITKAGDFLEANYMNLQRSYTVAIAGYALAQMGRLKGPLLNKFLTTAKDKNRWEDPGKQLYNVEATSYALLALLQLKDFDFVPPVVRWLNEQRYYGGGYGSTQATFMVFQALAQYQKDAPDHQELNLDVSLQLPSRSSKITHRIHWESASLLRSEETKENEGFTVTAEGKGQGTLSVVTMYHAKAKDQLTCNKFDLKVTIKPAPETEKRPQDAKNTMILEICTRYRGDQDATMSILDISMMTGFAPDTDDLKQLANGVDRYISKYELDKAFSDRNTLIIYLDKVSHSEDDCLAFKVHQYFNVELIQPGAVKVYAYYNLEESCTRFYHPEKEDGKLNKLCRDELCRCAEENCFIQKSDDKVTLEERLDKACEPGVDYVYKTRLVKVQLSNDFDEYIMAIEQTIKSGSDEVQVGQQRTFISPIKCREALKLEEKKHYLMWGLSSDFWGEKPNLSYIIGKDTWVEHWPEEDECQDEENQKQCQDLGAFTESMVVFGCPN
# Sequence (P00751 260-764 D279G/K350N/M458I, chain 2 of 2, further chain): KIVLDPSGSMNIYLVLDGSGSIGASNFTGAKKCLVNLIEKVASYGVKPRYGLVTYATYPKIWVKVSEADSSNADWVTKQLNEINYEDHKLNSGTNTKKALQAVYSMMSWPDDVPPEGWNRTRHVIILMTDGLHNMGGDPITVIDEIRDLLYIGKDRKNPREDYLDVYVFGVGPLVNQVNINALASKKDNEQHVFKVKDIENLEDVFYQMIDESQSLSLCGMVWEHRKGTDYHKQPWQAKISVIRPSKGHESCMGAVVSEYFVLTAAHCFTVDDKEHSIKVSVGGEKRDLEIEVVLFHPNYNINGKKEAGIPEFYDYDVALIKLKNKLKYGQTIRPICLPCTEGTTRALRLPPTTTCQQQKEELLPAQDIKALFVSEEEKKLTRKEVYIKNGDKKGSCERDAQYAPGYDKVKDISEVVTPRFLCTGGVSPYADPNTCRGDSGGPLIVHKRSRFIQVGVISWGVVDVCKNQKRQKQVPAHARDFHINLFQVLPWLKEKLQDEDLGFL
# procedureText: SPR, 25C
The following binders are listed with their measured Kd values.
assayMetric: Kd (nM)

binder	assayMetric	unitDescriptor	limitOperator	assayValue
P1AH1205 (antibody, V domains shown) VH: KVQLVESGGGLVQPGGSLRLSCAASGFKWEHYAMSWVRQAPGKGLEWVGSISPRGDHKYYNTKFIDRFTISRDNDKNTLYLQMNSLRAEDTAVYYCARDWDYFDRWGQGTLVTVSS VL: AIQMTQSPSSLSASVGDRVTITCQSQFWLSNYLAWYQQKPGKAPKLLIFDGDLPYERPSRFSGSGSHDEYTLTISSLQPEDFATYYCQQYREEPYTFGQGTKLEIK	Kd	nM	=	0.016
P1AG9376 (antibody, V domains shown) VH: KVQLVESGGGLVQPGGSLRLSCAASGFKWEHYAMSWVRQAPGKGLEWVGSISPRGDHKYYNTKFIDRFTISRDNDKNTLYLQMNSLRAEDTAVYYCARDWDYFDRWGQGTLVTVSS VL: AIQMTQSPSSLSASVGDRVTITCQSQFWLSNYLAWYQQKPGKAPKLLIFDGDLPYERPSRFSGSGSHDEYTLTISSLQPEDFATYYCQQYREEPYTFGQGTKLEIK	Kd	nM	<	0.001
